Let's look at some substances and their measured A280.
method: Zinc precipitation of GLP-1 compounds (A280 of supernatant)
Assay type: physicochemical
setupConditions: Zn/GLP-1 molar ratio 0.7, 100 μM GLP-1 compound, HEPES pH 7.4, 22° C., 18 hours
Where no end group is shown, it is not given here.
readoutKind: A280

| substance | assayResult |
| --- | --- |
| Gly^8-GLP-1(7-37)OH (HGEGTFTSDVSSYLEGQAAKEFIAWLVKGRG-OH; UniProt P01275 98-128, looked up, variant A8G) [reference compound] | 0.156 |
| Val^8-Ser^22-GLP-1(7-37)OH (HVEGTFTSDVSSYLESQAAKEFIAWLVKGRG) | 0.1825 |
| Val^8-Pro^22-GLP-1(7-37)OH (HVEGTFTSDVSSYLEPQAAKEFIAWLVKGRG) | 0.219 |
